Target: Torsin-1A (Homo sapiens) (UniProt O14656)
Sequence (O14656 whole entry, looked up): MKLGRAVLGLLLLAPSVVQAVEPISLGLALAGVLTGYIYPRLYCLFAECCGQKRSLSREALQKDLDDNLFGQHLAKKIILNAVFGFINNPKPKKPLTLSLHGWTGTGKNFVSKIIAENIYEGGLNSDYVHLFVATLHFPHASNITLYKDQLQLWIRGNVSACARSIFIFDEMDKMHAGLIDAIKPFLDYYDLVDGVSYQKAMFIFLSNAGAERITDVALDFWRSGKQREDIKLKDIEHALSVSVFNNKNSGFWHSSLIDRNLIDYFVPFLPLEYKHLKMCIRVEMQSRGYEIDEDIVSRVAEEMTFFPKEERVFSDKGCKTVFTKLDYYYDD
Assay: torsin A binders from cell lysate, primary screen, small-molecule microarray, wild-type, 635/667 nm (AID 1149)
Settings: COS7 hTOR1A-WT lysate, 635 nm fluorescence, higher = more signal
readout-kind: composite z-score
Form field (numeric): enter value without unit.

[[record]]
molecule = "CCN1C(=O)[C@H]2[C@H]3[C@H](O)[C@H](O)CC(=NOC(C)CN4CCCc5nc(C)c(C)cc54)[C@@H]3CC[C@H]2C1=O (stereo not given in full)"
readout_kind = "composite z-score"
result_number = 0.46

[[record]]
molecule = "C[C@H]1CC[C@@H](C(=O)O)N[C@@H]1c1ccc(C#Cc2ccccc2)cc1"
readout_kind = "composite z-score"
result_number = 0.587

[[record]]
molecule = "CC(=O)OC[C@H]1O[C@@H](ON=C(C)CCC(=O)OC[C@H]2O[C@H](C#Cc3ccccc3)C=C[C@@H]2Oc2ccc(C)cc2)[C@H](OC(C)=O)[C@@H](OC(C)=O)[C@@H]1OC(C)=O"
readout_kind = "composite z-score"
result_number = 0.513

[[record]]
molecule = "CC(CCN1CCc2nc(-c3ccccc3)c(-c3ccccc3)cc2C1)=NOC(C)CN1CCCc2nc(C)c(C)cc21 (stereo not given)"
readout_kind = "composite z-score"
result_number = 0.373

[[record]]
molecule = "COC(=O)[C@H](C)NC(=O)CCC1CC(OC(=O)NCCc2ccc(F)cc2)CC2(CCCC(COC(=O)NCC3CCCCC3)O2)O1 (stereo not given in full)"
readout_kind = "composite z-score"
result_number = -0.0051

[[record]]
molecule = "C[C@@H]1CC[C@H]2C(=O)N3[C@@H](CC[C@@H](C)[C@@H]3c3ccc(Br)cc3)C(=O)N2[C@H]1c1ccc(Br)cc1"
readout_kind = "composite z-score"
result_number = 1.05

[[record]]
molecule = "CC(=O)OC[C@H]1O[C@H](CCON=C(C)CCN2CCCc3nc(C)c(C)cc32)C=C[C@@H]1OC(C)=O"
readout_kind = "composite z-score"
result_number = 0.946

[[record]]
molecule = "CCN1C(=O)[C@H]2[C@H]3[C@H](O)[C@H](O)CC(=NO[C@@H]4O[C@H](CO)[C@@H](O)[C@H](O)[C@H]4O)[C@H]3CC[C@H]2C1=O"
readout_kind = "composite z-score"
result_number = 0.261


Measured composite z-score, `C=CC[C@@H]1C=C[C@H](ON=C2C[C@@H](O)[C@@H](O)[C@@H]3[C@@H]4C(=O)N(CC)C(=O)[C@@H]4CC[C@@H]23)[C@@H](CO)O1` : 0.862

The molecule listed as `CO[C@H]1C[C@@H]2C[C@H](O)CC(CC(=O)O[C@@H](C=CCC(C)C)C[C@@H]3CC[C@H](C)[C@@H](C1)O3)O2` shows composite z-score equal to 0.778

So, `CCOC(=O)CCN1C(=O)[C@H]2[C@H]3[C@H](O)[C@H](O)CC(=NNC(=O)OCc4ccc(OC)cc4)[C@H]3CC[C@H]2C1=O` ? Its composite z-score was 0.306

molecule `Cc1ccc(C(C)C)n1C(=O)OC(C)(C)C` , composite z-score observed: 0.356

Entry CCOC(=O)[C@H](CC(C)C)NC(=O)CCC1CC(OC(=O)NCCc2ccc(F)cc2)CC2(CCCC(COC(=O)NCCCN3CCCC3=O)O2)O1 (stereo not given in full) — recorded composite z-score = 1.66

Please fill in: composite z-score reported for `CON=C1c2cc(OC)ccc2O[C@H](c2cccc(OC)c2)[C@H]1O` = 0.195

Kindly note the recorded composite z-score for `CC(CCN1CCc2nc(-c3ccccc3)c(-c3ccccc3)cc2C1)=NO[C@@H](C)c1cc(-c2c(C)cc(C)cc2C)no1` , which is 0.199

---

# key: entry, value: composite z-score
Biological target: Neurogenic locus notch homolog protein 3 (Homo sapiens)
Assay: NOTCH3 binders on small-molecule microarray, primary screen, biochemical, 635/667 nm fluorescence (AID 1096)
Conditions: NOTCH3 binding, 635 nm fluorescence, higher = more signal
// print number alone

[[record]]
compound = "CON=C(C)CCN1CCCCc2nc(C)c(C)cc21"
result_number = 0.397

[[record]]
compound = "CCCNC(=O)OC[C@H]1O[C@H](CCON=C[C@@H](NS(=O)(=O)c2ccc(C)cc2)[C@H](C)C=CCC(=O)OC)C=C[C@@H]1Oc1ccc(OC)cc1"
result_number = -0.0703

[[record]]
compound = "C=CC[C@@H]1C=C[C@H](ON=C[C@@H](NS(=O)(=O)c2ccc(C)cc2)[C@H](C)C=CCC(=O)OC)[C@@H](CO)O1"
result_number = -0.531

[[record]]
compound = "CO[C@H]1C[C@@H]2C[C@H](O)CC(CC(=O)O[C@@H](C=CCC(C)C)C[C@@H]3CC[C@H](C)[C@@H](C1)O3)O2"
result_number = 1.06

[[record]]
compound = "C[C@H]1C=CCC(=O)OC[C@H](C)C(=O)N2CCC[C@H]2C(=O)OC1"
result_number = 0.373


Reported composite z-score ( `CO[C@@H]1C=CCC(=O)N[C@@H](C)C(=O)OC[C@@H](OC)[C@H](C)C=CCC(=O)OC[C@H]1C` ) = 0.312

Just so you know, measured composite z-score for CC(CCC(=O)OC[C@H]1O[C@H](C#Cc2ccccc2)C=C[C@@H]1Oc1ccc(C)cc1)=NOC(C)CN1CCCc2nc(C)c(C)cc21 (stereo partly drawn) came out at 0.894

The compound listed as `CO[C@@H]1[C@H](O)CO[C@H]1C=Cc1ccccc1` has a reported composite z-score of 0.0872

---

Target: Follistatin-related protein 3 (Homo sapiens) (UniProt O95633)
Sequence (O95633 whole entry, looked up): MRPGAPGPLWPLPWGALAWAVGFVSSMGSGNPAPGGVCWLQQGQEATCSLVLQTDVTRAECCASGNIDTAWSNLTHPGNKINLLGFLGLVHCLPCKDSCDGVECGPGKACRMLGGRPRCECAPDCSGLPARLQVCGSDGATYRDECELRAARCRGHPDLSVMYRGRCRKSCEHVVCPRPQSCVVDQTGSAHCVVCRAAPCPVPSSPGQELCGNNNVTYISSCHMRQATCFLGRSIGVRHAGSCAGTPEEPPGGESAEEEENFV
Assay: FSTL3 binders on small-molecule microarrays, primary screen, biochemical, small-molecule microarray, 635 nm fluorescence (AID 1105);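 note: score merges emission near 667 nm and signal to noise per printed spot across three slides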
Conditions: FSTL3 binding, higher = more signal
composite z-score overview

Value of composite z-score reported for the compound `CO[C@@H]1COC(=O)CC=C[C@H](C)[C@H](OC)COC(=O)[C@@H]2CCCN2C(=O)CC=C[C@H]1C` is 1.25

GET /value?item= CCOC(=O)[C@H](CC(C)C)NC(=O)CCC1CC(OC(=O)NCc2ccc3c(c2)OCO3)CC2(CCCC(COC(=O)NCCc3ccccc3OC)O2)O1 (some centres not stated) &field=composite z-score returns 1.01

---

Assay: basal HepG2 mitochondrial membrane potential changes, profiling panel, cell-based, JC-1 fluorescence, 24 h, 100 nL compound (AID 1167); note: test concentration not given here
Conditions: higher = more signal
1 (yes) means recorded z-score is -0.6 or above; 0 (no) means it is below -0.6.

[[record]]
molecule = "O=C1[C@H]2[C@H]3[C@H](O)[C@H](O)CC(=NOC[C@@H](O)COCc4ccco4)[C@@H]3CC[C@H]2C(=O)N1Cc1ccc2c(c1)OCO2"
group_label = "1 (yes)"

[[record]]
molecule = "C#CCCCON=C1C[C@@H](O)[C@@H](O)[C@@H]2[C@@H]3C(=O)N(CC)C(=O)[C@@H]3CC[C@H]12"
group_label = "1 (yes)"

[[record]]
molecule = "CC(=O)OC[C@H]1O[C@H](CC=NOC(C)CN2CCCc3nc(C)c(C)cc32)C=C[C@@H]1OC(C)=O (stereo not given in full)"
group_label = "0 (no)"

[[record]]
molecule = "COc1ccc(O[C@H]2C=C[C@@H](c3ccccc3)O[C@@H]2CON=C(C)CCN2CCCc3nc(C)c(C)cc32)cc1"
group_label = "1 (yes)"

[[record]]
molecule = "CC(C)CON=C1[C@H]2CCn3c(=O)n(C)c(=O)n3[C@H]2[C@H](O)[C@@H]2O[C@H]12"
group_label = "1 (yes)"

[[record]]
molecule = "CO[C@H]1C[C@@H]2C[C@H](O)CC(CC(=O)O[C@@H](C=CCC(C)C)C[C@@H]3CC[C@H](C)[C@@H](C1)O3)O2"
group_label = "1 (yes)"

[[record]]
molecule = "CCN1C(=O)[C@H]2[C@H]3[C@H](O)[C@H](O)CC(=NO[C@@H]4O[C@H](CO)[C@@H](O)[C@H](O)[C@H]4O)[C@H]3CC[C@H]2C1=O"
group_label = "0 (no)"

[[record]]
molecule = "O=C1[C@H]2[C@H]3[C@H](O)[C@H](O)CC(=NOCc4ccccc4)[C@H]3CC[C@H]2C(=O)N1C1CCCCC1"
group_label = "0 (no)"

[[record]]
molecule = "O=C1[C@H]2[C@H]3[C@H](O)[C@H](O)CC(=NO[C@@H]4O[C@H](CO)[C@@H](O)[C@H](O)[C@H]4O)[C@@H]3CC[C@H]2C(=O)N1c1cccc(Oc2ccccc2)c1"
group_label = "0 (no)"

[[record]]
molecule = "COC(=O)[C@@H]1CC[C@H](C)[C@@H](c2ccc(C)cc2)N1C(=O)c1ccc(C=NOC[C@@H](O)[C@H]2O[C@@H]3OC(C)(C)O[C@@H]3[C@H]2O)cc1"
group_label = "0 (no)"


z-score >= -0.6 for `O=C1C[C@H](c2ccccc2)[C@H](c2ccc(Br)cc2)O1` ?
1 (yes)

Tell me whether z-score is at least -0.6 here: O=C1CCCC=C1C(O)C1CCCCC1 (stereo not given)
0 (no)
